List of GI50 values.
System: PC-3
test.description: NCI tumour cell line growth inhibition, 48 h
The source made the active and inactive calls. Rule as the data show it: active = GI50 up to about 1.1 µM and inactive = higher.

compound: Cc1ccc(N2CCC3(CC2)OCCO3)cc1
target: PC-3
GI50: > 100 µM (inactive)

compound: CC1(C)OCC=CCO1
target: PC-3
GI50: > 100 µM (inactive)

compound: CC1(CO)OC(n2cnc3cncnc32)CC1O (stereo unspecified)
target: PC-3
GI50: > 100 µM (inactive)

compound: CCOC(=O)C1(N)CCc2[nH][nH]c(=O)c2C1 (stereo unspecified)
target: PC-3
GI50: > 100 µM (inactive)

compound: N#Cc1c(C#N)c(-c2ccco2)n(/N=C/c2ccco2)c1N
target: PC-3
GI50: > 100 µM (inactive)

compound: C#CC1(O)C(COP(=O)(O)OC(COCCCCCCCCCCCCCCCCCC)COP(=O)(O)OCC2OC(n3cc(C)c(=O)[nH]c3=O)CC2N=[N+]=[N-])OC(n2ccc(N)nc2=O)C1O (stereo unspecified)
target: PC-3
GI50: 2.86 µM (inactive)

compound: CCOC(=O)c1cc(-c2ccc(OC)c(OC)c2)cn1C
target: PC-3
GI50: > 10 µM (inactive)

compound: CCN1c2nc3ccccc3nc2N(CC)c2nc3ccccc3nc21
target: PC-3
GI50: 61.5 µM (inactive)

compound: O=C1N[C@H]2c3c(Cl)sc(Cl)c3/C(=N/O)[C@H]2O1
target: PC-3
GI50: > 100 µM (inactive)

compound: N#CC1=C(N2CCCC2)NC(=O)CC1=O
target: PC-3
GI50: > 100 µM (inactive)

compound: COc1ccc2nc3cc([N+](=O)[O-])ccc3c(Nc3ccc(S(=O)(=O)Nc4ncccn4)cc3)c2c1
target: PC-3
GI50: 30.6 µM (inactive)

---

System: CCRF-CEM
test.description: NCI tumour cell line growth inhibition, 48 h
Activity calls are given as the source filed them. No stated cut-off is given here; in the data, active = GI50 up to about 1.1 µM and inactive = higher.
Outcomes: TRUE (active), FALSE (inactive)

compound: CC1CCN(c2cc(-c3cc4ccccc4o3)oc(=O)c2C#N)CC1
qualitative.label: FALSE
//
compound: CC1=C(C)CC2C(=O)N(c3cc(C(C)(C)C)ccc3C(C)(C)C)C(=O)C2C1 (stereo not drawn)
qualitative.label: FALSE
//
compound: O=C(O[C@H]1CCN2C[C@H]3C[C@H](CN4C(=O)CCC[C@H]34)[C@@H]2C1)c1ccc(O)cc1
qualitative.label: FALSE
//
compound: COc1ccc(C)cc1N1C(=O)C2ON(Cc3ccc(CC(N)=O)cc3)C(c3c4ccccc4c(Cl)c4ccccc34)C2C1=O (stereo not drawn)
qualitative.label: FALSE
//
compound: Cc1cccc(/C=N/NC(=S)NC2CCCCC2)n1
qualitative.label: FALSE
//
compound: O=C(CC1(O)C(=O)Nc2c(Cl)cc(Cl)cc21)c1ccc(Br)cc1Br (stereo not drawn)
qualitative.label: TRUE
//
compound: C=CC/N=C1/N=C(CC(=O)OCC)CS1
qualitative.label: FALSE
//
compound: O=c1c(-c2ccc(O)cc2)coc2cc(OC3OC(CO)C(O)C(O)C3O)cc(O)c12 (stereo not drawn)
qualitative.label: FALSE
//
compound: C=C1CC2CC[C@@]34C[C@H]5O[C@@H]6C(O[C@H]7CC[C@H](CC(=O)OC8[C@H](C)C9OC%10C[C@]%11(C[C@@H]%12O[C@]%13(C[C@H](C)[C@@H]%14O[C@H]([C@H](O)C[C@H](O)CO)C[C@@H]%14O%13)C[C@H](C)[C@@H]%12O%11)OC%10CC9O[C@H]8C[C@H]8O[C@H](CC[C@@H]1O2)C[C@@H](C)C8=C)O[C@H]7[C@@H]6O3)[C@@H]5O4 (stereo partly drawn)
qualitative.label: TRUE
//
compound: COC(=O)CCC(=O)CC(=O)C1=NS(=O)(=O)c2nc(S(N)(=O)=O)c(Cl)cc2N1
qualitative.label: FALSE
//
compound: O=C(CC(O)c1cccnc1)CC(O)c1cccnc1 (stereo not drawn)
qualitative.label: FALSE
//
compound: CC1(c2ccc(F)cc2)C(C#N)C(=O)NC(=O)C1C#N (stereo not drawn)
qualitative.label: FALSE
//
compound: COC1=CC(=O)c2c(cc(COP(=O)(N(C)CCBr)N(C)CCBr)n2C)C1=O
qualitative.label: TRUE
//
compound: C#CCOCn1cnc2ncnc(Cl)c21
qualitative.label: FALSE
//
compound: COC(=O)C(CCCCNC(=O)CNC(=O)OCc1ccccc1)NC(=O)C(CCCCNC(=O)CNC(=O)OCc1ccccc1)NC(=O)OCc1ccccc1 (stereo not drawn)
qualitative.label: FALSE
//
compound: CN(CCN(C)C(=S)NN)C(=S)NN
qualitative.label: FALSE
//
compound: CC(/C=C/c1ccccc1)=N\N=C(C)\C=C\c1ccccc1
qualitative.label: FALSE
//
compound: CC(=O)Nc1cc2c3c(c1)CCCN3CCC2
qualitative.label: FALSE
